Measured growth, listed per entry for reference.
Test system: HOP-92 NSCLC
TEST: NCI-60 one-dose screen, 48 h (100 = growth as untreated, 0 = no growth, -100 = all killed)
REPORTED_CONDITIONS: 10 µM
About 83,000 compounds went through this panel and 20% of them were active in at least one assay; those are over-represented in the sample as a whole.
Output spec: scalar in %, unitless text.

[
  {
    "COMPOUND": "COc1cc2c(c(OC)c1OC)C(=O)CC(c1cccc(NC(=O)c3cccc(N)c3)c1)O2 (stereo not given)",
    "UNITS_TEXT": "%",
    "growth": 74
  },
  {
    "COMPOUND": "C=C(C)[C@@H]1CC[C@]2(C)[C@H](CC=C3[C@@H]4CC(C)(C)CC[C@]4(C(=O)N4CCOCC4)CC[C@]32C)[C@@]1(C)CCCN",
    "UNITS_TEXT": "%",
    "growth": -77.1
  },
  {
    "COMPOUND": "C/C(=N\\NC(N)=S)c1ccc(Nc2nc(SC(C)C)nc(-c3ccccc3)c2C#N)cc1",
    "UNITS_TEXT": "%",
    "growth": -11.1
  },
  {
    "COMPOUND": "CN1C(=O)N(C)C2SC(N/N=C/c3ccccc3F)=NC21 (stereo not given)",
    "UNITS_TEXT": "%",
    "growth": 124
  }
]

Now consider the entry below.
## Input Given CO[C@@H]1CSSC1Cn1nc(-c2ccc(Oc3ccccc3)cc2)c2c(N)ncnc21 (stereo not given in full) , respond with its growth.
## Output 35.9

###

Measured growth, listed per entry for reference.
Test system: SF-295 CNS
TEST: NCI-60 one-dose screen, 48 h (100 = growth as untreated, 0 = no growth, -100 = all killed)
REPORTED_CONDITIONS: 10 µM
This is part of a sample that, as a whole, favours compounds with a hit. Of some 83,000 tested, about 20% had one in any assay.
Output spec: scalar in %, unitless text.

The cases that follow already have their growth on record.
[
  {
    "CHEMICAL_STRUCTURE": "COc1ccc(Nc2nc(N)n(Cc3cccc(Br)c3)n2)cc1",
    "UNITS_TEXT": "%",
    "growth": 4.42
  },
  {
    "CHEMICAL_STRUCTURE": "CC(=O)Nc1nc(-c2ccc(N3CCN(C)CC3)c(NS(=O)(=O)c3cccc4c(N(C)C)cccc34)c2)cs1",
    "UNITS_TEXT": "%",
    "growth": -58.7
  }
]

## Input Given COc1ccc2[nH]c(O)c(N=NC(=O)c3cc(-c4ccc(C)cc4)nc4ccccc34)c2c1 , respond with its growth.
## Output 108

## Input Given CN1CCN(c2ccc(C(=O)/C=C/c3cc(Br)ccc3F)cc2)CC1 , respond with its growth.
## Output 60.7

## Input Given Cn1cc(/C=N/Nc2cccc(Cl)n2)c2ccccc21 , respond with its growth.
## Output 73.5

## Input Given COc1ccc(CCN2C(=O)/C(=C/c3csc(C#N)n3)SC2=S)cc1OC , respond with its growth.
## Output 98.7

###

Test system: HCT-15 colon
TEST: NCI-60 one-dose screen, 48 h
REPORTED_CONDITIONS: 10 µM
The panel holds about 83,000 compounds, 20% with a hit somewhere; the sample as a whole holds those more often. Active and inactive are the calls of the source. Rule for the calls: active = growth percent below 10; inactive = the rest.
Entry note: the call must match one of 1 = active, -1 = inactive

[
  {
    "CHEMICAL_STRUCTURE": "O=C(O)CCCCCCCCCCN1C(=O)/C(=C/c2cnc(-c3ccccc3)s2)SC1=S",
    "ASSIGNED_CATEGORY": -1
  },
  {
    "CHEMICAL_STRUCTURE": "Oc1ccc(/C=C2\\CCCc3cc4ccc(O)cc4[o+]c32)c(O)c1",
    "ASSIGNED_CATEGORY": -1
  },
  {
    "CHEMICAL_STRUCTURE": "CC(=O)NNc1ccc2nnc(-c3ccc(Br)cc3)n2n1",
    "ASSIGNED_CATEGORY": -1
  }
]

## Input Give the logged outcome of this assay for the following compound: Cc1ccc2nc(COc3ccc(C(=O)NNC(=S)NCCc4ccccc4)cc3)[nH]c2c1
## Output -1

## Input Give the logged outcome of this assay for the following compound: O=C1Nc2cc(-c3ccc(NC(=O)c4cccc([N+](=O)[O-])c4)cc3)ccc2/C1=C/c1ccc[nH]1
## Output -1

## Input Give the logged outcome of this assay for the following compound: COc1ccc(C(=O)Nc2sc3c(c2C#N)CCC(=O)C3)cc1C(F)(F)F
## Output 1

## Input Give the logged outcome of this assay for the following compound: COc1ccc(-c2cc(C(=O)N=Nc3c(O)[nH]c4ccc(Br)cc34)c3ccccc3n2)cc1
## Output 1

## Input Give the logged outcome of this assay for the following compound: CC(C)C1=C[C@@]23CC[C@@H]4[C@](C)(CCC[C@]4(C)C(=O)NCc4ccccc4)[C@H]2C[C@@H]1[C@H]1C(=O)CCC(=O)[C@H]13
## Output -1

###

Test system: HCT-116 colon
TEST: NCI-60 one-dose screen, 48 h (100 = growth as untreated, 0 = no growth, -100 = all killed)
REPORTED_CONDITIONS: 10 µM
The panel holds about 83,000 compounds, 20% with a hit somewhere; the sample as a whole holds those more often.
QUANTITY_NAME: growth (%)
Output spec: scalar in %, unitless text.

The cases that follow already have their growth on record.
[
  {
    "COMPOUND": "O=C(Nc1nc2ccc([N+](=O)[O-])cc2s1)Nc1ccccc1I",
    "TARGET_OF_ASSAY": "HCT-116 colon",
    "QUANTITY_NAME": "growth",
    "NUMERIC_RESULT": -18.8
  },
  {
    "COMPOUND": "COc1ccc([C@H]2C(C(=O)c3ccc(Cl)cc3)C3(N[C@@H]2c2ccccc2)C(=O)Nc2ccc(Br)cc23)cc1 (stereo partly drawn)",
    "TARGET_OF_ASSAY": "HCT-116 colon",
    "QUANTITY_NAME": "growth",
    "NUMERIC_RESULT": 1.73
  },
  {
    "COMPOUND": "Nc1cccnc1/C=N/NC(=S)NCCNC(=O)c1ccc(-n2nc(-c3ccccc3O)nc2-c2ccccc2O)cc1",
    "TARGET_OF_ASSAY": "HCT-116 colon",
    "QUANTITY_NAME": "growth",
    "NUMERIC_RESULT": 7.1
  },
  {
    "COMPOUND": "O=C(c1ccc(Cl)cc1)C1[C@H](c2ccccc2Br)[C@@H](c2ccccc2)NC12C(=O)Nc1ccccc12 (stereo partly drawn)",
    "TARGET_OF_ASSAY": "HCT-116 colon",
    "QUANTITY_NAME": "growth",
    "NUMERIC_RESULT": 16.3
  },
  {
    "COMPOUND": "COc1cc(/C=C/C(=O)c2ccc(S(=O)(=O)NCCNc3nc(Nc4ccc(F)cc4)nc(N(C)C)n3)cc2)cc(OC)c1OC",
    "TARGET_OF_ASSAY": "HCT-116 colon",
    "QUANTITY_NAME": "growth",
    "NUMERIC_RESULT": -69.6
  },
  {
    "COMPOUND": "COc1ccc(NC(=O)Nc2ccc(OCC(=O)N=Nc3c(O)[nH]c4ccc([N+](=O)[O-])cc34)cc2)cc1",
    "TARGET_OF_ASSAY": "HCT-116 colon",
    "QUANTITY_NAME": "growth",
    "NUMERIC_RESULT": 85.6
  },
  {
    "COMPOUND": "O=C(CNc1nc(-c2ccccc2)cs1)Nc1ccc(Cl)cc1",
    "TARGET_OF_ASSAY": "HCT-116 colon",
    "QUANTITY_NAME": "growth",
    "NUMERIC_RESULT": -41.2
  },
  {
    "COMPOUND": "Cc1ccc([N+](=O)[O-])c(C(=O)Nc2ccc(-c3ccc4c(c3)NC(=O)/C4=C\\c3ccc[nH]3)cc2)c1",
    "TARGET_OF_ASSAY": "HCT-116 colon",
    "QUANTITY_NAME": "growth",
    "NUMERIC_RESULT": 55.9
  },
  {
    "COMPOUND": "O=C(c1ccc(O)cc1)C1[C@H](c2ccccc2Br)[C@@H](c2ccccc2)NC12C(=O)Nc1ccc(Cl)cc12 (stereo partly drawn)",
    "TARGET_OF_ASSAY": "HCT-116 colon",
    "QUANTITY_NAME": "growth",
    "NUMERIC_RESULT": 18.4
  },
  {
    "COMPOUND": "CCOc1ccc2ncc(C#Cc3cncc(C(=O)Nc4ccc(CN5CCN(C)CC5)c(C(F)(F)F)c4)c3)n2n1",
    "TARGET_OF_ASSAY": "HCT-116 colon",
    "QUANTITY_NAME": "growth",
    "NUMERIC_RESULT": -48
  }
]

## Input Given O=c1[nH]c2ccc(Cl)cc2cc1CSc1ccc(Nc2nccc(-c3ccc(Cl)cc3)n2)cc1 , respond with its growth.
## Output 32.9

## Input Given O=C(c1ccc(O)cc1)C1[C@H](c2ccc(Br)cc2)[C@@H](c2ccccc2)NC12C(=O)Nc1ccccc12 (stereo partly drawn) , respond with its growth.
## Output 17.3

## Input Given CC(C)(C)c1ccc(NCc2cn(-c3ccc(C(=O)O)cc3)nc2-c2ccc(C#N)cc2)cc1 , respond with its growth.
## Output -13.9

## Input Given COc1ccc(-c2nc(Nc3ccccc3S(N)(=O)=O)c3ccccc3n2)cc1 , respond with its growth.
## Output -42.9

## Input Given Cn1c(O)c(N=Nc2nc(-c3cc4ccccc4oc3=O)cs2)c2cc(Br)ccc21 , respond with its growth.
## Output 48.9
